# Tested on: IGROV1 ovarian
# assay overview: NCI tumour cell line growth inhibition, 48 h
Consider the following compounds; for each one, report its TGI.

# count of solved cases: 6
compound="N=c1ccn2c(n1)OC1C(OP(=O)(O)O)C(CO)OC12 (stereo not given)" parameter=TGI result="> 100 µM"
compound="CSc1nc(NC2OCC(OC(C)=O)C(OC(C)=O)C2OC(C)=O)c(N=CC=Nc2c(NC3OCC(OC(C)=O)C(OC(C)=O)C3OC(C)=O)nc(SC)n(C)c2=O)c(=O)n1C (stereo not given)" parameter=TGI result="> 100 µM"
compound="CC1CCCOc2ccc(cc2)C=Nc2ccc(cc2)CCc2ccc(cc2)N=Cc2ccc(cc2)OCCC1 (stereo not given)" parameter=TGI result="> 100 µM"
compound="CCOC(=O)C1C(=O)CC(C)(O)C(C(=O)OCC)C1c1ccc(N(C)C)cc1 (stereo not given)" parameter=TGI result="> 100 µM"
compound=CC(=O)O[C@H]1CC[C@H]2[C@@H]3CCc4cc(O)c(I)cc4[C@H]3CC[C@]12C parameter=TGI result="30.5 µM"
compound=CC1=CC2=C(OCO1)C(=O)c1ccccc1C2=O parameter=TGI result="27.6 µM"

Okay, here is my list. What is TGI for each of these?
1. CC1(C)S[C@@H]2[C@H](NC(=O)CCC[C@@H](N)C(=O)O)C(=O)N2[C@H]1C(=O)O
2. O=C(OCc1ccccc1)N1CCNCCNCC1

["> 50 µM", "> 100 µM"]

Okay, here is my list. What is TGI for each of these?
1. CC1(C)CCC(=O)c2c(O)ccc(O)c21
2. COC(=O)CCc1ccc2c(c1)CCC2

["> 100 µM", "> 100 µM"]

---

Consider the following compounds; for each one, report its TGI.
# System: SNB-19 CNS
# assay overview: NCI tumour cell line growth inhibition, 48 h

Okay, here is my list. What is TGI for each of these?
1. O=C(OC(C(=O)O)C(OC(=O)c1ccccc1)C(=O)O)c1ccccc1 (centres undefined) (tested in a mixture with another compound)
2. COc1ccc(OC)c(/C=C/c2nnc(Nc3ccc(Cl)cc3)o2)c1
3. CCc1ccc(C2=C/C(=C/c3ccc(Cl)cc3)C(=O)N2CCc2ccc(S(N)(=O)=O)cc2)cc1

["> 100 µM", "> 100 µM", "13.7 µM"]

Okay, here is my list. What is TGI for each of these?
1. O=C1C=C(Nc2ccccc2)c2ncccc2C1=O
2. C#CCCCC(=C)C[C@H](OCc1ccccc1)[C@H]1OC(=O)[C@@H]1C
3. c1cncc(C2c3[nH]c4ccccc4c3CCN2CCCN2CCCCC2)c1 (centres undefined)

1: 1.43 µM; 2: > 100 µM; 3: > 100 µM

Okay, here is my list. What is TGI for each of these?
1. Cc1c(O)c(OC2OC(CO)C(O)C(O)C2O)cc2c1CC[C@@H]1C2(C)C(=O)C[C@]2(C)[C@@H]([C@@](C)(O)C(O)/C=C/C(C)(C)O)[C@H](O)C[C@@]12C (some centres undefined)
2. O=C(O)C1C2C=CC(O2)C1C(=O)Nc1ccccc1 (centres undefined)
3. Nn1c(CCCl)nc2c(Br)cc(Br)cc2c1=O
4. c1ccc(N/N=C2\CC(c3ccccc3)Oc3ccccc32)cc1 (centres undefined)
5. O=[N+]([O-])C(/C(Cl)=C(/Cl)N1CCCCC1)=C1\NCCO1

> 100 µM
> 100 µM
> 100 µM
> 100 µM
> 100 µM
